assay: LD 50 orally; conditions: in vivo; oral; 95% confidence limits in parentheses
LD50 by entry:
Hi! Could you send only the number? It should be in mg/kg, unit omitted.

Use these answered entries as a reference point.
Just so you know, measured LD50 for FC(F)(F)c1cccc(N2CCNCC2)c1 [Compound II, N-(m-trifluoromethylphenyl)-piperazine, reference compound] came out at 200

# LD50 of FC(F)(F)Sc1cccc(N2CCNCC2)c1 = 210

Read the next record carefully.
The measured LD50 associated with Cl.N#CCCN1CCN(c2cccc(SC(F)(F)F)c2)CC1 reads 335

---

Test: LD 50 intravenously
Details: in vivo; intravenous; 95% confidence limits in parentheses
Experimental: In every case, the compounds under test were administered orally. The results obtained are given in the table below which also gives the LD 50's (and their 95% confidence limits) of the compounds studied determined intravenously and orally.
MEASURED PROPERTY: LD50 (mg/kg)
Answer format: numeric, mg/kg implied, no suffix.

Answered examples (2):
Recorded result, FC(F)(F)c1cccc(N2CCNCC2)c1 [Compound II, N-(m-trifluoromethylphenyl)-piperazine, reference compound] , LD50: 80

Please fill in: LD50 reported for FC(F)(F)Sc1cccc(N2CCNCC2)c1 = 90

Pending compound:
Record Cl.N#CCCN1CCN(c2cccc(SC(F)(F)F)c2)CC1 , field LD50: 180
